# System: A549 NSCLC
# METHOD SUMMARY: NCI tumour cell line growth inhibition, 48 h; in the data active = GI50 below about 0.43 µM; inactive = the rest
Please state which outcome applies, choosing from YES for active, NO for inactive

Use the examples below as a reference point.
COMPOUND	LABEL VALUE
Cc1cc(Nc2ccc(OCc3ccccc3)cc2)nc2cc(O)ccc12	NO
N.N.NCCCCCN.O=C([O-])CCl.O=C([O-])CCl.O=C([O-])CCl.O=C([O-])CCl.[Pt+4].[Pt+4]	NO
CCC(CC)c1nc(Nc2ccc(C(=O)OC)cc2)c2ccccc2n1	NO
O=S(=O)([O-])c1ccc(N=Cc2ccccc2[O-])cc1.O=S(=O)([O-])c1ccc(N=Cc2ccccc2[O-])cc1.[O]=[U+2]=[O]	NO
Nc1ccccc1NC(=O)c1ccc(CNc2nccc(-c3cccnc3)n2)cc1	NO

[in] // param item: CCCCCCCC/C=C/CCCCCCCC1=NC(C)(C)CN1CC(C)O (stereo unspecified) ; yields the recorded call
[out] NO

[in] Lookup COc1cc([C@@H]2c3cc4c(c(O)c3C[C@H]3COC(=O)[C@@H]32)OCO4)cc(OC)c1OC
[out] YES

[in] Lookup O=C(c1ccco1)c1nc2cc(C(F)(F)F)ccc2nc1C(F)(F)F
[out] NO

[in] Lookup Cc1cc(Cl)cc2c(N=Nc3ccc(S(N)(=O)=O)cc3)c(O)[nH]c12
[out] NO

[in] Lookup COc1ccc(/C=C(/C(=O)N2CCN(c3ccccc3)CC2)c2cc(OC)c(OC)c(OC)c2)cc1N
[out] NO

---

# Tested on: OVCAR-3 ovarian
# METHOD SUMMARY: NCI tumour cell line growth inhibition, 48 h
Please go through the items and note down their TGI.

Below, 5 compounds whose answers are already recorded.
COMPOUND	RESULT TYPE	RESULT
Cc1ccc(S(=O)(=O)c2ccc(NC(=O)SCCC(=O)O)cc2)cc1	TGI	> 100 µM
CC(=O)Nc1ccc(NS(=O)(=O)c2ccc3nc(C)n(NS(=O)(=O)c4ccc(NC(C)=O)cc4)c(=O)c3c2)cc1	TGI	> 100 µM
CCCC(=O)NC(Nc1cc(C)ccn1)(C(=O)OCC)C(F)(F)F (centres undefined)	TGI	> 100 µM
CO/C=C/C(=O)c1cc2cnc3c(=N)cc(NC(=O)C(C)C)c([nH]1)c23	TGI	0.353 µM
O=C1CC[C@H](N2C(=O)c3cccc4c(Cc5ccc(CN6CCOCC6)cc5)ccc2c34)C(=O)N1	TGI	> 100 µM

Report TGI for every entry below.
1. C=CCC(N[C@@H](CO)c1ccccc1)c1cn(Cc2ccccc2Cl)c(=O)n(Cc2ccccc2Cl)c1=O (some centres undefined)
2. O=C(COc1ccc(/C=C2\COc3ccccc3C2=O)cc1)Nc1nccs1
3. O=c1ccn(CC2(CO)CCCC2)c(=O)[nH]1

[out]
1. > 100 µM
2. 5.81 µM
3. > 100 µM

---

Please go through the items and note down their GI50.
# Test system: A498 renal
# METHOD SUMMARY: NCI tumour cell line growth inhibition, 48 h

>>> print(df.to_string())
                                   compound    result
0  CSC1=Nc2c(c(C)c(-c3ccccc3)n2CCCN2CCCCC2)C2=NC(=O)C[C@H](C)N12    2.6 µM
1  C[C@]12CCc3nc(Nc4cccc(O)c4)sc3C1=CC[C@@H]1[C@@H]2CC[C@]2(C)/C(=N\NC(N)=S)CC[C@@H]12   3.01 µM
2  CCCCCCCC/C=C/CCCCCCCC1=NC(C)(C)CN1CC(C)O (stereo not drawn)  0.935 µM

Report GI50 for every entry below.
1. O=C(/C=C/c1ccco1)c1cc(F)c(Cl)cc1Cl
2. Cc1ccc(Cl)cc1Nc1nc(C(F)(F)F)ccc1C(=O)N/N=C/c1cccnc1
3. O=S(=O)([O-])c1ccc(N=Cc2ccccc2[O-])cc1.O=S(=O)([O-])c1ccc(N=Cc2ccccc2[O-])cc1.[O]=[U+2]=[O]
4. COc1cc(/C=C2\C[C@H]3[C@@H]4CC=C5C[C@@H](O)CC[C@]5(C)[C@H]4CC[C@]3(C)[C@H]2O)ccc1OCCN1CCCC1
5. CN(C)c1ccc(/C=C/c2ccnc3c(O)cccc23)cc1
6. Cc1ccc(NC(=O)c2ccc(CN3CCN(C)CC3)cc2)cc1Nc1nccc(-c2cccnc2)n1
7. C[n+]1c(/C=C/c2c[nH]c3ccccc23)ccc2ccccc21
8. Nc1c(C(=O)c2ccc(-c3cccnc3)cc2)cnn1-c1ccc(F)cc1

[out]
1: 18.7 µM; 2: 2.95 µM; 3: > 100 µM; 4: 25.1 µM; 5: 3.39 µM; 6: 20.6 µM; 7: 2.8 µM; 8: > 18.8 µM

Report GI50 for every entry below.
1. C[C@]12CC[C@@H]3c4cc(OC(F)F)c(O)cc4CC[C@H]3[C@@H]1CC[C@@H]2OS(N)(=O)=O
2. O=C(COc1ccc(/C=C2\COc3ccccc3C2=O)cc1)Nc1nccs1

[out]
1. 0.321 µM
2. 19.3 µM
